Exercise: state measured solubility (g/100 g solution) for each of the compounds provided.
protocol notes: xn = mol fraction of the nth substance listed, in the solute-free solvent
assay setup: 313.15 K; x2 = 0.1666
One number for each entry.

{"columns": ["compound", "solubility (g/100 g solution)"],
 "data": [
  ["c1ccc(-c2ccc(C(c3ccccc3)n3ccnc3)cc2)cc1 (centres undefined) + CC(C)O + O", 1.84]
]}

Record solubility (g/100 g solution) per entry; entries follow.
1. Nc1nc2ccc(OC(F)(F)F)cc2s1 + CCCO + O
2. CC1CCC2C(C)C(OC(=O)CCC(=O)O)OC3OC4(C)CCC1C32OO4 (centres undefined) + CC(C)O + O
3. c1ccc(-c2ccc(C(c3ccccc3)n3ccnc3)cc2)cc1 (centres undefined) + CCCO + O

Result ::
1: 26.4; 2: 2.77; 3: 1.9
